// data source = patent US10781224B2

# System: corn (Krasnodar 385 MV variety)
# assay_protocol: Corn seed treatment with BHMPA salts: germination energy and germination rate
# Assay type: in vivo
# test_conditions: 1·10^−11% solution
property_label: Germination rate (%)
Numbers only; they are read as %.

Field: example entries. Status: answers known.
compound | Germination rate, %
O=P([O-])(CO)CO.[Na+] [Na-salt, Sodium BHMPA Salt] | 89.5
O.O.O=P([O-])(CO)CO.O=P([O-])(CO)CO.[Mn+2] [Mn-salt, Manganese BHMPA Salt] | 85.3
O=P([O-])(CO)CO.O=P([O-])(CO)CO.[Zn+2] [Zn-salt, Zinc BHMPA Salt] | 83.3
O.O.O=P([O-])(CO)CO.O=P([O-])(CO)CO.[Co+2] [Co-salt, Cobalt BHMPA Salt] | 80.8

Could you tell me which Germination rate is on file for O=P([O-])(CO)CO.O=P([O-])(CO)CO.[Ca+2] [Ca-salt, Calcium BHMPA Salt] ?
88.3

Could you tell me which Germination rate is on file for O=P([O-])(CO)CO.O=P([O-])(CO)CO.[Mg+2] [Mg-salt, Magnesium BHMPA Salt] ?
91.7
